# Target System: Neuraminidase (Influenza A virus, UniProt B4URF0)
# Sequence (B4URF0 whole entry): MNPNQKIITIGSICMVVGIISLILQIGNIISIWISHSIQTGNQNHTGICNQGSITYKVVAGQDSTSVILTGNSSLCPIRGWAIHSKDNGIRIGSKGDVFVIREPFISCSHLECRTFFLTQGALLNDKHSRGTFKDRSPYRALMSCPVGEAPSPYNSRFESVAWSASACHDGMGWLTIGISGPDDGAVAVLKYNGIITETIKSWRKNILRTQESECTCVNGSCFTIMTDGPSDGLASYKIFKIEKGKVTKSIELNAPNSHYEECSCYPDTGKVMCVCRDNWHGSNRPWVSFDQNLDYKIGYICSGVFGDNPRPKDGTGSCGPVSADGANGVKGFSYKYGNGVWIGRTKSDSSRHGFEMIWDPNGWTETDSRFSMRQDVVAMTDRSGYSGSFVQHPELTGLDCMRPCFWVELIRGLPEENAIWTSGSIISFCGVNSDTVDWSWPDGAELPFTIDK
# Design: species or system H7N3
Result Type: IC50
Respond with the figure and its unit, in that order.

The following molecules have reported results that may help.
Structure Smiles	IC50
C/C=C/C(=O)N[C@@H]1[C@@H](N=[N+]=[N-])CC(C(=O)O)=C[C@H]1OC(CC)CC	99.3 µM
C/C=C/C(=O)N[C@@H]1[C@@H](N)CC(C(=O)O)=C[C@H]1OC(CC)CC	4.51 µM
CCC(CC)O[C@@H]1C=C(C(=O)O)C[C@H](N=[N+]=[N-])[C@H]1NC(C)=O	0.0022 µM

Lab note: measured IC50 of "C=CC(=O)N[C@@H]1[C@@H](N)CC(C(=O)O)=C[C@H]1OC(CC)CC" was 0.0001 µM

IC50 reported for this molecule "C=CC(=O)N[C@@H]1[C@@H](NCC(C)C)CC(C(=O)O)=C[C@H]1OC(CC)CC" : 0.0281 µM
